Biological target: CDK19 (CDC2L6/CycC) (Homo sapiens, UniProt Q9BWU1)
Construct: purchased Carna Biosciences
Sequence (Q9BWU1 whole entry): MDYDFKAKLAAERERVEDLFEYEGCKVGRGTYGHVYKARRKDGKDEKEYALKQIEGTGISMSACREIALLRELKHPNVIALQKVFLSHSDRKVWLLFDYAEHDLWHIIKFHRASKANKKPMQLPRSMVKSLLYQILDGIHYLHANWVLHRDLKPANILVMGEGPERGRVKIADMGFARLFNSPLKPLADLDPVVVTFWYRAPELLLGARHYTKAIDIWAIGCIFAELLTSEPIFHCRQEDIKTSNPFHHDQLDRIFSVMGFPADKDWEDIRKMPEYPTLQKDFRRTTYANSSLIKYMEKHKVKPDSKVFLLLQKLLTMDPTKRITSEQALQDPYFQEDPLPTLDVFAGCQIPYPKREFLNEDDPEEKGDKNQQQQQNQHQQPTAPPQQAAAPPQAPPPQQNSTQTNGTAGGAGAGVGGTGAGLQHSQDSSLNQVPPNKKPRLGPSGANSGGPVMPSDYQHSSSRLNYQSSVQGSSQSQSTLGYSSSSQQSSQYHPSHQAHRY
Sequence (P24863 whole entry partner): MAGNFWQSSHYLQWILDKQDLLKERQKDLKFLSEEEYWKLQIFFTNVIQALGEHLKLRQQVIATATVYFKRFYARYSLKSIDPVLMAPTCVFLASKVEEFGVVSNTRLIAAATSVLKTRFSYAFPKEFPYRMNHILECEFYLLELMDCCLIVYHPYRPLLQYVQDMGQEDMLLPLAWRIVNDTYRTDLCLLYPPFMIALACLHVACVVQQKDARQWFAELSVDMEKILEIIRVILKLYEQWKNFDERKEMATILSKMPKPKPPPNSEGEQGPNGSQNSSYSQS
Assay: CDK19 inhibitory activity (TR-FRET, Kinase Tracer-236 displacement)
Assay type: binding
Conditions: 1 μM of the test compound; read-out: Percent inhibition of CDK19 activity (%)
measured attribute: inhibition at 1 µM (%)

[[record]]
compound = "Cn1cc(-c2c(F)cncc2/C=C/C(=O)Nc2ccc(CN3CC(F)(F)C3)cc2)cn1 [Example 359]"
measured_attribute = "inhibition at 1 µM"
numeric_readout = 102

[[record]]
compound = "COc1ccc(-c2ccncc2/C=C/C(=O)Nc2ccc(CN3CCOCC3)cc2)s1 [Example 220]"
measured_attribute = "inhibition at 1 µM"
numeric_readout = 96

[[record]]
compound = "Cn1cc(-c2ccncc2/C=C/C(=O)Nc2cccc(-c3cccnc3)c2)cn1 [Example 182]"
measured_attribute = "inhibition at 1 µM"
numeric_readout = 78

[[record]]
compound = "O=C(/C=C/c1cnccc1-c1cnn(C2CC2)c1)Nc1ccc(CN2CC(F)(F)C2)cc1 [Example 309]"
measured_attribute = "inhibition at 1 µM"
numeric_readout = 101

[[record]]
compound = "Cn1cc(-c2ccncc2/C=C/C(=O)Nc2ccc3c(c2)OCC3)cn1 [Example 116]"
measured_attribute = "inhibition at 1 µM"
numeric_readout = 94

[[record]]
compound = "Cn1cc(-c2c(F)cncc2/C=C/C(=O)Nc2ccc(CN3CCOCC3)cc2)cn1 [Example 238]"
measured_attribute = "inhibition at 1 µM"
numeric_readout = 100

[[record]]
compound = "C[C@@H]1CN(Cc2ccc(NC(=O)/C=C/c3cnccc3-c3cnn(C)c3)cc2)C[C@H](C)O1 [Example 53]"
measured_attribute = "inhibition at 1 µM"
numeric_readout = 97

[[record]]
compound = "O=C(/C=C/c1cnccc1-c1cnn(C2CC2)c1)Nc1ccc(CN2CCOCC2)cc1 [Example 97]"
measured_attribute = "inhibition at 1 µM"
numeric_readout = 102

[[record]]
compound = "Cn1cc(-c2ccncc2/C=C/C(=O)Nc2ccc3c(c2)CCC3=O)cn1 [Example 176]"
measured_attribute = "inhibition at 1 µM"
numeric_readout = 87

[[record]]
compound = "CC(C)(O)Cc1ccc(NC(=O)/C=C/c2cncc(F)c2-c2cnn(C3CC3)c2)c(F)c1 [Example 332]"
measured_attribute = "inhibition at 1 µM"
numeric_readout = 99

[[record]]
compound = "O=C(/C=C/c1cnccc1-c1ccc2nccn2c1)Nc1ccc(CN2CCOCC2)cc1 [Example 222]"
measured_attribute = "inhibition at 1 µM"
numeric_readout = 100

[[record]]
compound = "Cc1nn(C)cc1-c1ccncc1/C=C/C(=O)Nc1ccc(CCc2nnco2)cc1 [Example 19]"
measured_attribute = "inhibition at 1 µM"
numeric_readout = 98

[[record]]
compound = "Cc1ccc(NC(=O)/C=C/c2cnccc2-c2cn[nH]c2)c(F)c1 [Example 296]"
measured_attribute = "inhibition at 1 µM"
numeric_readout = 97

[[record]]
compound = "Cc1noc(C)c1-c1ccc(NC(=O)/C=C/c2cnccc2-c2cnn(C3CC3)c2)c(F)c1 [Example 311]"
measured_attribute = "inhibition at 1 µM"
numeric_readout = 98

[[record]]
compound = "O=C(/C=C/c1cnccc1-c1cnn(C(F)F)c1)Nc1ccc(CN2CCOCC2)cc1 [Example 98]"
measured_attribute = "inhibition at 1 µM"
numeric_readout = 100

[[record]]
compound = "COCCn1cnc2ccc(-c3ccncc3/C=C/C(=O)Nc3ccc(CN4CCOCC4)cc3)cc21 [Example 295]"
measured_attribute = "inhibition at 1 µM"
numeric_readout = 97

[[record]]
compound = "O=C(/C=C/c1cnccc1-c1cnn(C2CC2)c1)Nc1ccc(CN2CCOCC2)cc1F [Example 194]"
measured_attribute = "inhibition at 1 µM"
numeric_readout = 99

